The values you see were collected from PubChem BioAssay (Tox21).

# systemName: Nuclear receptor subfamily 1 group I member 2 (Homo sapiens) (UniProt O75469)
# Sequence (O75469 whole entry, looked up): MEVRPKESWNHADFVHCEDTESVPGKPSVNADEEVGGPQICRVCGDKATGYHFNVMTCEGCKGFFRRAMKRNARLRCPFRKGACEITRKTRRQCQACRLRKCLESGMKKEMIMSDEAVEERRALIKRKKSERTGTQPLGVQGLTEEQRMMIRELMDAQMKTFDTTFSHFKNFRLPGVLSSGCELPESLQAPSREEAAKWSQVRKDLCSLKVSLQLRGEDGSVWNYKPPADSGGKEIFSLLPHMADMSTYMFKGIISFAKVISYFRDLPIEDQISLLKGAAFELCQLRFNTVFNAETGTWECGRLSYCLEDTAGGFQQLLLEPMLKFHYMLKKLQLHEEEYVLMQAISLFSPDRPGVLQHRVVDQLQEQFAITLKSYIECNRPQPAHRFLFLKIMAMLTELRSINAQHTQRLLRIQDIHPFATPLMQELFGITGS
# testProtocol: Human pregnane X receptor (PXR) small molecule agonists, qHTS assay (AID 1346982); further: nearly all actives have a fitted effect of over 35% in size
# experimentalConditions: PXR-Luc HepG2, CYP3A4 luciferase reporter, 24 h; series mostly up to 92.4 µM
Results filed as inconclusive are left out. Calls of active or inactive are those of the source. The call rests on the fitted dose curve; in most records, active means well fitted activation curve with a large enough effect in the repeat runs; inconclusive means weak or mixed curves; inactive means no such curve, though single readings can be large or run the other way.
Possible outcomes: True (active), False (inactive)

[[record]]
compound = "Cc1nnc(SCC2=C(C(=O)O)N3C(=O)[C@@H](NC(=O)Cn4cnnn4)[C@H]3SC2)s1"
category = "False"

[[record]]
compound = "CCOC(=O)NCCC[Si](OCC)(OCC)OCC"
category = "False"

[[record]]
compound = "CC1CN(c2ccccc2)NC1=O (stereo not drawn)"
category = "True"


###

# testProtocol: qHTS RealTime-Glo MT Cell Viability Assay in HEK293 cells - 32 hour (AID 1224868); further: nearly all actives have a fitted effect of over 50% in size
# experimentalConditions: RealTime-Glo luminescence; series mostly up to 76.8 µM
Results filed as inconclusive are left out. Active and inactive are the calls of the source. The call rests on the fitted dose curve; in most records, active means well fitted cell-killing curve with a large enough effect in the repeat runs; inconclusive means weak or mixed curves, or effect the other way; inactive means flat fitted curve, though single readings scatter.
Outcome codes: YES = active, NO = inactive

[[record]]
compound = "O=C1C=CC(=O)O1"
category = "NO"

[[record]]
compound = "CC/C=C\\CCOC(=O)C(C)C"
category = "NO"

[[record]]
compound = "NC1=NCC2c3ccccc3Cc3ccccc3N12 (stereo not drawn)"
category = "NO"

[[record]]
compound = "CN1CCC[C@@H]1Cc1c[nH]c2ccc(CCS(=O)(=O)c3ccccc3)cc12"
category = "NO"

[[record]]
compound = "CN(C)Cc1ccccc1"
category = "NO"

[[record]]
compound = "C1CCOC1"
category = "NO"

[[record]]
compound = "Cc1ccc([N+](=O)[O-])cc1Cl"
category = "NO"

[[record]]
compound = "OCCN(CCO)c1ccccc1"
category = "NO"

[[record]]
compound = "CC(C)=CCCC(C)CCOC=O (stereo not drawn)"
category = "NO"

[[record]]
compound = "CN1C(=O)CC(c2ccccc2)C1=O (stereo not drawn)"
category = "NO"

[[record]]
compound = "ICCc1ccccc1"
category = "NO"

[[record]]
compound = "CC(C)C(=O)OC/C=C/c1ccccc1"
category = "NO"

[[record]]
compound = "NCCC(O)(P(=O)(O)O)P(=O)(O)O"
category = "NO"

[[record]]
compound = "O=C(O)[C@@H](O)[C@H](O)[C@H](O)[C@@H](O)C(=O)O"
category = "NO"

[[record]]
compound = "CCCCCCCCc1ccc(S(=O)(=O)O)cc1"
category = "NO"

[[record]]
compound = "Cc1ccc([N+](=O)[O-])c(N)c1"
category = "NO"

[[record]]
compound = "O=c1[nH]cnc2c1ncn2[C@@H]1O[C@H](CO)[C@@H](O)[C@H]1O"
category = "NO"

[[record]]
compound = "OCCN1CCN(CCO)CC1"
category = "NO"

[[record]]
compound = "CCCCCCCCCC#N"
category = "NO"

[[record]]
compound = "CS(=O)(=O)c1ccc([C@@H](O)[C@@H](CF)NC(=O)C(Cl)Cl)cc1"
category = "NO"

[[record]]
compound = "CCc1cc2cc(OC)c(OC)cc2c(Cc2ccccc2)n1"
category = "YES"

[[record]]
compound = "O=C1CCCCC1C1CCCCC1 (stereo not drawn)"
category = "NO"

[[record]]
compound = "CC(C)S"
category = "NO"

[[record]]
compound = "COC(=O)/C=C(/C)N"
category = "NO"

[[record]]
compound = "COC(=O)c1ccc(OC)cc1"
category = "NO"

[[record]]
compound = "O=Cc1ccc(O)c(O)c1O"
category = "NO"

[[record]]
compound = "CC1=CC(=O)CC(C)(C)C1=O"
category = "NO"

[[record]]
compound = "CC1=NN(c2cc(Cl)c(S(=O)(=O)O)cc2Cl)C(=O)C1N=Nc1ccc(S(=O)(=O)O)cc1 (stereo not drawn)"
category = "NO"

